Assay: PK-BBB brain-plasma permeability
Format: in vivo, mouse
Details: male, ICR, mouse, brain; 5 mg/kg IV, 0.083 h; read-out: Brain concentration
testReadout: concentration at 0.083 h (ng/g)
Response body: numeric value in ng/g, unit text excluded.

-- ask Give concentration at 0.083 h for CNc1ccc(NCCc2ccccc2OC)cc1.Cl
-- reply 1680

====

Assay: In vivo pharmacokinetics (IV, PO)
Conditions: male, ICR, mouse, plasma; mice, 5 mg/kg IV; read-out: t1/2, IV (converted)
testReadout: half-life (min)
Please respond with the number in min and leave the unit unwritten.

-- ask Could you please provide reported half-life for CNc1ccc(NCCc2ccccc2OC)cc1.Cl [KDS12025] ? Thanks!
-- reply 57.6

====

Quick list: EC50 per entry.
Target: HRP (Armoracia rusticana, UniProt P00433)
Sequence (P00433 31-353): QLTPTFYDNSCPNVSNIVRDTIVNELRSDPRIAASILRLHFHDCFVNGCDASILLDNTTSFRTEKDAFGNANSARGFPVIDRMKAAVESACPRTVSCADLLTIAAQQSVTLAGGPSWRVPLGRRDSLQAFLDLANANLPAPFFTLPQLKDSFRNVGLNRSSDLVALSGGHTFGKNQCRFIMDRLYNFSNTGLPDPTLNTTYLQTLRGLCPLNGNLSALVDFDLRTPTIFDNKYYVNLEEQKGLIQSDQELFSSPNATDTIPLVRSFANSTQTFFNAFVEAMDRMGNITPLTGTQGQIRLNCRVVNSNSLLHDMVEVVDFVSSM
Test: H2O2 assay with HRP (HRP-EC50)
Type: biochemical, horseradish
Details: Tables S2, S3; read-out: HRP-EC50
Report the value in µM with no unit label.

>  <compound>
O=C(O)c1cc(NCCc2ccc(C(F)(F)F)cc2)ccc1O [HTPEB, reference compound]

>  <numericReadout>
1.52

$$$$

-- ask Specify measured EC50 for CNc1ccc(NCCc2ccccc2C(F)(F)F)cc1 [8h] .
-- reply 0.5

====

Assay: In vivo pharmacokinetics (IV, PO)
Conditions: male, ICR, mouse, plasma; mice, 5 mg/kg IV and 30 mg/kg PO; read-out: F (bioavailability)
Method: In vivo pharmacokinetic studies of KDS12025 were conducted by Medicilon (Shanghai, China). For both intravenous (IV) and oral (PO) administration, the compound was dissolved in a vehicle consisting of 10% Solutol and 90% distilled water. […] After vortexing for 1 min and centrifugation at 18,000 x g for 7 min, the supernatant was analyzed by liquid chromatography–tandem mass spectrometry (LC-MS/MS; TQ5500 Triple Quad, SCIEX). […]
testReadout: bioavailability (%)
Dear colleague, please return just the value in %, with no unit written.

-- ask Report measured bioavailability; entry is CNc1ccc(NCCc2ccccc2OC)cc1.Cl
-- reply 87.4

====

Experiment: In vivo pharmacokinetics (IV, PO)
Settings: male, ICR, mouse, plasma; mice, 30 mg/kg PO; read-out: AUCall, PO
testReadout: AUC (ng·h/mL)
// note: answer is a bare numeric in ng·h/mL

-- ask Please give the documented AUC of CNc1ccc(NCCc2ccccc2OC)cc1.Cl
-- reply 3600

====

Test: PK-BBB brain-plasma permeability
Format: in vivo, mouse
Conditions: male, ICR, mouse, plasma; 5 mg/kg IV, 1 h; read-out: Plasma concentration
testReadout: concentration at 1 h
Write down the value, and be sure its unit follows.

-- ask Answer with the recorded concentration at 1 h for the molecule listed here: CNc1ccc(NCCc2ccccc2OC)cc1.Cl
-- reply 84.7 ng/mL

====

Experiment: PK-BBB brain-plasma permeability
Type: in vivo, mouse
Conditions: male, ICR, mouse, plasma; mice, 5 mg/kg IV; read-out: plasma AUCall (PK-BBB)
testReadout: AUC

-- ask Output AUC of CNc1ccc(NCCc2ccccc2OC)cc1.Cl
-- reply 721 ng·h/mL

====

Experiment: PK-BBB brain-plasma permeability
Type: in vivo, mouse
Conditions: male, ICR, mouse, brain; 5 mg/kg IV, 0.5 h; read-out: Brain concentration
testReadout: concentration at 0.5 h (ng/g)
Give the quantity in ng/g, number only.

-- ask Provide only the value of recorded concentration at 0.5 h for CNc1ccc(NCCc2ccccc2OC)cc1.Cl
-- reply 234

====

Experiment: PAMPA BBB permeability
Format: in vitro ADME
Conditions: 50 μM, 4 h
testReadout: BCS code: CNS +/- classification

>  <molecule>
O=C(O)c1cc(NCCc2ccc(C(F)(F)F)cc2)ccc1O [HTPEB, reference compound]

>  <testReadout>
BCS code: CNS +/- classification

>  <result>
- (< 10)

$$$$
>  <molecule>
CNc1ccc(NCCc2ccccc2OC)cc1.Cl

>  <testReadout>
BCS code: CNS +/- classification

>  <result>
+ (> 10)

$$$$
>  <molecule>
CC(=O)[C@H]1CC[C@H]2[C@@H]3CCC4=CC(=O)CC[C@]4(C)[C@H]3CC[C@]12C

>  <testReadout>
BCS code: CNS +/- classification

>  <result>
+ (> 10)

$$$$
>  <molecule>
CNC(=C[N+](=O)[O-])NCCSCc1ccc(CN(C)C)o1

>  <testReadout>
BCS code: CNS +/- classification

>  <result>
- (< 10)

$$$$

====

Target: HRP (Armoracia rusticana)
Experiment: ROS-Glo H2O2 assay with HRP
Assay type: biochemical, horseradish
Conditions: Fig. 1e; read-out: EC50, ROS-Glo assay with replenishing HRP
testReadout: EC50 (nM)
Your answer should be a plain number; it is taken to be in nM.

-- ask Recall and state the measured EC50 for O=C(O)c1cc(NCCc2ccc(C(F)(F)F)cc2)ccc1O [HTPEB, reference compound] .
-- reply 2500

====

Target: hERG potassium channel (Homo sapiens, UniProt Q12809)
Construct: Eurofins Discovery (Cerep, France) SafetyScreen87 panel
Sequence (Q12809 whole entry): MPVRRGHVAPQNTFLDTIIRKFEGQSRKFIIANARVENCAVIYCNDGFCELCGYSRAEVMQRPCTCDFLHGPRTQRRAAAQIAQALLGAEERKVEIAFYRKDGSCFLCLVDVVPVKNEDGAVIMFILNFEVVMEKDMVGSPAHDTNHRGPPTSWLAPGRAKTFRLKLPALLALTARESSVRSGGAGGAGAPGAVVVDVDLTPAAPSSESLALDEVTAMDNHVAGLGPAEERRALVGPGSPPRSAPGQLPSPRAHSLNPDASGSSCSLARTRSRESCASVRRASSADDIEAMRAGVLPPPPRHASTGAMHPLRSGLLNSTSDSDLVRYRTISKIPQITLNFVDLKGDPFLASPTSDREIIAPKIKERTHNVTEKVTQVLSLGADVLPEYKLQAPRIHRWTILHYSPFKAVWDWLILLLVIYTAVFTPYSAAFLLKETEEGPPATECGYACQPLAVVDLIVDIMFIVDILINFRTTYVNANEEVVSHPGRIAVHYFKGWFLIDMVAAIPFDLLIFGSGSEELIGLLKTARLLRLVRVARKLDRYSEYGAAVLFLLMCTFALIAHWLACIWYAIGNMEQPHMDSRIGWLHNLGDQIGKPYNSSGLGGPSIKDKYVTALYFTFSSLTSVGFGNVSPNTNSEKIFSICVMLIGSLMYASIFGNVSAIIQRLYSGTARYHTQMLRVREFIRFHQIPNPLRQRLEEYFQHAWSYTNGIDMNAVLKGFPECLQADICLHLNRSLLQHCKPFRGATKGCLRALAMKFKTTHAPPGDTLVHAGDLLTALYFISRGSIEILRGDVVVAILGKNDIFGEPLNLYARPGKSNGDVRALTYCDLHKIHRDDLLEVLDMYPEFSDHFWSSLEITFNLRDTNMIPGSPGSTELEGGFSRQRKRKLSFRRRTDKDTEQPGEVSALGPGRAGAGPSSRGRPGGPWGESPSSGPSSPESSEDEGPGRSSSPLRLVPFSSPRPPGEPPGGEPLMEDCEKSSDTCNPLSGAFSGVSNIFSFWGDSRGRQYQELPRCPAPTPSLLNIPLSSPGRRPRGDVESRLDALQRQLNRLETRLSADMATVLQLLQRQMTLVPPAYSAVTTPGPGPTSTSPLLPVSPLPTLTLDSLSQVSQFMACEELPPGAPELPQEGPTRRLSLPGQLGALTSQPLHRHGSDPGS
Assay: SafetyScreen87 panel
Details: human, probe [3H] Dofetilide, 1.0E-06 M; read-out: % Inhibition of Control Specific Binding (1st, 2nd, Mean)
testReadout: activity at 1 µM (%)
All answers are understood in %, so give the number only.

-- ask Provide one value: measured activity at 1 µM of CNc1ccc(NCCc2ccccc2OC)cc1.Cl [KDS12025]
-- reply 70.3

====

Target: Potassium Channel hERG (human)- [3H] Dofetilide (Homo sapiens, UniProt Q12809)
Construct: Eurofins Discovery (Cerep, France) SafetyScreen87 panel
Sequence (Q12809 whole entry): as the sequence (Q12809 whole entry) above
Test: SafetyScreen87 panel
Details: 1.0E-06 M; mean; read-out: % Inhibition of Control Specific Binding (1st, 2nd, Mean)
testReadout: activity
State the value, then name its unit.

-- ask For CNc1ccc(NCCc2ccccc2OC)cc1.Cl , write its activity.
-- reply 68.5%

====

Assay: PK-BBB brain-plasma permeability
Type: in vivo, mouse
Conditions: male, ICR, mouse, plasma; 5 mg/kg IV, 4 h
testReadout: concentration at 4 h (ng/mL)
Provide the reading as a plain figure in ng/mL.

-- ask Note concentration at 4 h for the compound shown: CNc1ccc(NCCc2ccccc2OC)cc1.Cl [KDS12025]
-- reply 2.99

====

Known pIC50 of a selection of molecules
Assay: DPPH radical scavenging assay
Settings: Fig. S1e
# log scale: pIC50 equals minus log10 of the concentration in mol/L

Observe how each entry below is paired with its result.
>  <molecule>
CNc1ccc(NCCc2ccccc2OC)cc1.Cl [KDS12025]

>  <pIC50>
3.81

$$$$
>  <molecule>
O=C(O)c1cc(NCCc2ccc(C(F)(F)F)cc2)ccc1O [HTPEB, reference compound]

>  <pIC50>
4.72

$$$$

Now examine the next entry.
-- ask Kindly indicate its recorded pIC50. Item: CC1=NN(c2ccccc2)C(=O)C1 [Edaravone]
-- reply 4.78

====

Molecular target: Hb (Homo sapiens, UniProt P68871)
Construct: purchased Sigma-Aldrich H7379
Sequence (P68871 2-147 limits assumed): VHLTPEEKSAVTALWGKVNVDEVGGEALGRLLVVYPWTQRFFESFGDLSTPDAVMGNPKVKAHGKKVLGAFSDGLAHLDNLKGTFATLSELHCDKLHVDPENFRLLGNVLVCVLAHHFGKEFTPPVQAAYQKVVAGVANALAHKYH
Sequence (P69905 2-142 partner limits assumed): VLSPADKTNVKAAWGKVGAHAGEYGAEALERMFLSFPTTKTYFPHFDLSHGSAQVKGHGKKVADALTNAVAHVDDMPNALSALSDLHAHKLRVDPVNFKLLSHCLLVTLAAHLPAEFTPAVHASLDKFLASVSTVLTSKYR
Assay: ROS-Glo H2O2 assay with Hb
Assay type: biochemical
Conditions: in the presence of Hb, Fig. 1h; read-out: EC50 with Hb (H2O2 decomposition)
pEC50 by entry:
Keep in mind that pEC50 stands for -log10 of concentration in molar terms.

>  <compound>
CNc1ccc(NCCc2ccccc2OC)cc1.Cl

>  <pEC50>
7.40

$$$$
>  <compound>
CNc1ccc(NCCc2ccc(C(F)(F)F)cc2)cc1.Cl

>  <pEC50>
7.05

$$$$

Attention now turns to another entry.
-- ask Report pEC50, nothing else, for this compound: O=C(O)c1cc(NCCc2ccc(C(F)(F)F)cc2)ccc1O [HTPEB, reference compound]
-- reply 6.82

====

Assay: PK-BBB brain-plasma permeability
Format: in vivo, mouse
Settings: male, ICR, mouse, plasma; mice, 5 mg/kg IV; read-out: plasma Cl (PK-BBB) (converted)
testReadout: clearance (mL/min/kg)
Give your result in mL/min/kg as a bare value.

-- ask Give the reported value of clearance for this record: CNc1ccc(NCCc2ccccc2OC)cc1.Cl
-- reply 115

====

Assay: PK-BBB brain-plasma permeability
Format: in vivo, mouse
Details: male, ICR, mouse, brain; 5 mg/kg IV, 1 h; read-out: Brain concentration
Method: For the brain-plasma permeability assessment, brain tissues from male ICR mice (n = 3 per time point) were collected following euthanasia by CO2 inhalation. Brains were excised, rinsed with saline, blotted dry, and transferred into pre-labeled Eppendorf tubes (one brain per tube). […] The brain-to-plasma concentration ratio was calculated as the concentration of drug in brain tissue divided by the corresponding plasma concentration.
testReadout: concentration at 1 h (ng/g)
Express the result in ng/g but write the number alone.

-- ask Output measured concentration at 1 h for this item: CNc1ccc(NCCc2ccccc2OC)cc1.Cl [KDS12025]
-- reply 65.6
